- Test system: Calf thymus DNA
- method summary: Binding affinity to calf thymus DNA assessed as hypochromic shift after 30 mins by spectral analysis
- Format: nucleic-acid assay
- condition set: Bos taurus
Active and inactive are the calls of the source. The calls are words filed in the database; no cut-off is given here. Starred links: 1 amine or outer side, 2 acyl side, 3 side chain; linkers in the order of their positions; H or OH if unused. Positions of bridges follow the written chain, without caps; N, C: chain ends. Non-standard residues stand in square brackets, D forms with d. Residues, ends and D or L forms follow the SMILES beside them. Chains are numbered I, II in the order given. Actinocin(1to9) = Cc1c2oc3c(C)ccc(C(=O)[*:2])c3nc-2c(C(=O)[*:1])c(N)c1=O; NMeV = CN[C@H](C(=O)O)C(C)C; Sar = CNCC(=O)O
The categories you may choose from are TRUE for active, FALSE for inactive

// known answers, use as guide
compound	class
COC(=O)[C@H](NC(=O)[C@@H](NC(=O)c1c2nc3c(C(=O)N[C@H](C(=O)N[C@@H](C(=O)OC)C(C)C)[C@@H](C)O)ccc(C)c3oc-2c(C)c(=O)c1N)[C@@H](C)O)C(C)C	FALSE
Cc1c2oc3c(C)ccc(C(=O)N[C@@H]4C(=O)N[C@H](C(C)C)C(=O)N5CCC[C@H]5C(=O)N(C)CC(=O)N(C)[C@@H](C(C)C)C(=O)O[C@@H]4C)c3nc-2c(C(=O)N[C@@H]2C(=O)N[C@H](C(C)C)C(=O)N3CCC[C@H]3C(=O)N(C)CC(=O)N(C)[C@@H](C(C)C)C(=O)O[C@@H]2C)c(N)c1=O [DACTINOMYCIN] (I: T[dV]P[Sar][NMeV] / II: T[dV]P[Sar][NMeV]; ester I:1-I:C, II:1-II:C; linker I:N-II:N via Actinocin(1to9))	TRUE
Cc1c2oc3c(C)ccc(C(=O)N[C@H](C(=O)N[C@@H](C(=O)NCCO)C(C)C)[C@@H](C)O)c3nc-2c(C(=O)N[C@H](C(=O)N[C@@H](C(=O)NCCO)C(C)C)[C@@H](C)O)c(N)c1=O	FALSE

Please turn your attention to the following entry.
Look up the recorded call for Cc1c2oc3c(C)ccc(C(=O)N[C@H](C(=O)N[C@@H](C(=O)NN)C(C)C)[C@@H](C)O)c3nc-2c(C(=O)N[C@H](C(=O)N[C@@H](C(=O)NN)C(C)C)[C@@H](C)O)c(N)c1=O in this test.
FALSE

* * *

- Test system: Calf thymus DNA
- method summary: Binding affinity to calf thymus DNA assessed as bathochromic shift after 30 mins by spectral analysis
- Type: nucleic-acid assay
- condition set: Bos taurus
The source made the active and inactive calls. The rule behind the calls is not given here. Starred links: 1 amine or outer side, 2 acyl side, 3 side chain; linkers in the order of their positions; H or OH if unused. Positions of bridges follow the written chain, without caps; N, C: chain ends. Non-standard residues stand in square brackets, D forms with d. Residues, ends and D or L forms follow the SMILES beside them. Chains are numbered I, II in the order given. Actinocin(1to9) = Cc1c2oc3c(C)ccc(C(=O)[*:2])c3nc-2c(C(=O)[*:1])c(N)c1=O; NMeV = CN[C@H](C(=O)O)C(C)C; Sar = CNCC(=O)O
The categories you may choose from are active, inactive

// known answers, use as guide
molecule	class
CNC(=O)[C@H](NC(=O)[C@@H](NC(=O)c1c2nc3c(C(=O)N[C@H](C(=O)N[C@@H](C(=O)NC)C(C)C)[C@@H](C)O)ccc(C)c3oc-2c(C)c(=O)c1N)[C@@H](C)O)C(C)C	inactive
Cc1c2oc3c(C)ccc(C(=O)N[C@H](C(=O)N[C@@H](C(=O)NN)C(C)C)[C@@H](C)O)c3nc-2c(C(=O)N[C@H](C(=O)N[C@@H](C(=O)NN)C(C)C)[C@@H](C)O)c(N)c1=O	inactive
Cc1c2oc3c(C)ccc(C(=O)N[C@H](C(=O)N[C@@H](C(=O)NCCO)C(C)C)[C@@H](C)O)c3nc-2c(C(=O)N[C@H](C(=O)N[C@@H](C(=O)NCCO)C(C)C)[C@@H](C)O)c(N)c1=O	inactive

Please turn your attention to the following entry.
Look up the recorded call for Cc1c2oc3c(C)ccc(C(=O)N[C@@H]4C(=O)N[C@H](C(C)C)C(=O)N5CCC[C@H]5C(=O)N(C)CC(=O)N(C)[C@@H](C(C)C)C(=O)O[C@@H]4C)c3nc-2c(C(=O)N[C@@H]2C(=O)N[C@H](C(C)C)C(=O)N3CCC[C@H]3C(=O)N(C)CC(=O)N(C)[C@@H](C(C)C)C(=O)O[C@@H]2C)c(N)c1=O [DACTINOMYCIN] (I: T[dV]P[Sar][NMeV] / II: T[dV]P[Sar][NMeV]; ester I:1-I:C, II:1-II:C; linker I:N-II:N via Actinocin(1to9)) in this test.
active
